# study-system: 5-HT2B (Homo sapiens, UniProt P41595)
# Sequence (P41595 whole entry): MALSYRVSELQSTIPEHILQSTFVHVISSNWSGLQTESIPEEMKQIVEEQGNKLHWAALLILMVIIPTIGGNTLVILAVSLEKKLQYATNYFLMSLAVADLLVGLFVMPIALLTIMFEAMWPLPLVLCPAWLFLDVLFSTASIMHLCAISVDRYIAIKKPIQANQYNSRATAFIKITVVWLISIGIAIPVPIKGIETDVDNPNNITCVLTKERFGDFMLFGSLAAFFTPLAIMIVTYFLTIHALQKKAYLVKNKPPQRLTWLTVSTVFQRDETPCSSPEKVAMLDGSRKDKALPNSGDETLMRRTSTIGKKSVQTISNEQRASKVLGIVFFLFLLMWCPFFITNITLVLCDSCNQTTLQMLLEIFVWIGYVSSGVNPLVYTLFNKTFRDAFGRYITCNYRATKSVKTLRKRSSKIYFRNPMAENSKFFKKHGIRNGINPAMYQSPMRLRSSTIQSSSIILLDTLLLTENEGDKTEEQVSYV
// classify: if (Ki < 60 nM) Fulfilled else Not fulfilled

Example cases with answers are listed next.
[
  {
    "compound": "C=CCN(CC=C)CCc1c(C)[nH]c2ccc(F)cc12",
    "class-label": "Fulfilled"
  },
  {
    "compound": "C=CCN(CC=C)CCc1c[nH]c2cccc(OC(C)=O)c12",
    "class-label": "Not fulfilled"
  },
  {
    "compound": "C=CCN(CC=C)CCc1c(-c2ccccc2)[nH]c2ccccc12",
    "class-label": "Not fulfilled"
  },
  {
    "compound": "C=CCN(CC=C)CCc1c(C)[nH]c2ccc(OC)cc12",
    "class-label": "Not fulfilled"
  },
  {
    "compound": "C=CCN(CC=C)CCc1c[nH]c2cccc(O)c12 [4-HO-DALT, 4-hydroxy-N,N-diallyltryptamine]",
    "class-label": "Not fulfilled"
  }
]

Does the reported Ki of C=CCN(CC=C)CCc1c[nH]c2c(CC)cccc12 stay below 60 nM? Not fulfilled
